pIC50, PI3Kalpha (Homo sapiens (Human), UniProt P42336), per-entry values.
Convention used: pIC50 is expressed as -log10 of the molar concentration.

CCc1ncnc(-c2ccc(C(=O)N3CCC(N4CCOCC4)CC3)c(OC(F)(F)F)c2)c1C#Cc1ccc(N)nc1    6.45

We now examine a further compound.
Task item: Hi! What's the reported pIC50 for CCc1ncnc(-c2cc(F)c(C(=O)N3CCN4CCC[C@H]4C3)c(Cl)c2)c1C#Cc1ccc(N)nc1 on PI3Kalpha (Homo sapiens (Human), UniProt P42336)?
Reply: 6.76

---

pIC50, PI3Kalpha (Homo sapiens (Human), UniProt P42336), per-entry values.
Convention used: pIC50 is expressed as -log10 of the molar concentration.

CCc1ncnc(-c2ccc(C(=O)N3CCN(CC(C)O)CC3)c(Cl)c2)c1C#Cc1ccc(N)nc1 (stereo not drawn)    7.03
CCc1ncnc(-c2ccc(C(=O)N3CCC(N4CCOCC4)CC3)c(Cl)c2)c1C#Cc1ccc(N)nc1    7.00

Task item: Hi! What's the reported pIC50 for CCc1ncnc(-c2ccc(C(=O)N3CCC(C(C)(C)O)CC3)c(C(F)(F)F)c2)c1C#Cc1ccc(N)nc1 on PI3Kalpha (Homo sapiens (Human), UniProt P42336)?
Reply: 6.85

Task item: Hi! What's the reported pIC50 for CCc1ncnc(-c2ccc(C(=O)N3CCN(C(C)=O)CC3)c(C)c2)c1C#Cc1ccc(N)nc1 on PI3Kalpha (Homo sapiens (Human), UniProt P42336)?
Reply: 7.15

Task item: Hi! What's the reported pIC50 for CCc1ncnc(-c2cc(F)c(C(=O)N3CCN(CCOCCO)CC3)c(F)c2)c1C#Cc1ccc(N)nc1 on PI3Kalpha (Homo sapiens (Human), UniProt P42336)?
Reply: 6.95

Task item: Hi! What's the reported pIC50 for CCc1ncnc(-c2cc(F)c(C(=O)N3CCN(C4CCCC4O)CC3)c(F)c2)c1C#Cc1ccc(N)nc1 (stereo not drawn) on PI3Kalpha (Homo sapiens (Human), UniProt P42336)?
Reply: 6.97

Task item: Hi! What's the reported pIC50 for CCc1ncnc(-c2ccc(C(=O)N3CCN(CC4CC4)CC3)c(C)c2)c1C#Cc1ccc(N)nc1 on PI3Kalpha (Homo sapiens (Human), UniProt P42336)?
Reply: 6.96

Task item: Hi! What's the reported pIC50 for Cc1ncnc(-c2ccc(C(=O)N3CCN(C4CCOCC4)CC3)cc2)c1C#Cc1ccc(N)nc1 on PI3Kalpha (Homo sapiens (Human), UniProt P42336)?
Reply: 7.19

From: patent US8633183B2
